The origin of these recorded values is patent US20140243292A1.

- TESTED SYSTEM: human NCX1 (Homo sapiens)
- Construct: expressed in transfected cells
- TEST METHOD NOTES: NCX1 inhibition, reverse mode (Ca2+ influx into cells), FLIPR Fluo-4 assay
- Assay type: cell-based
- EXPERIMENTAL CONTEXT: inhibition of NCX1 in reverse mode (Ca2+ influx into cells); read-out: NCX1rv IC50
Counter-ions that a name gives are not always drawn.
Catalogue of molecules with associated IC50

>  <MOLECULE>
O=C(O)C1CN(C(=O)c2cnc(Oc3ccc4c(c3)CC[C@@H](c3ccccc3)O4)s2)CC1C(F)(F)F (some centres unmarked) [Example 243]

>  <UNITS>
nM

>  <IC50>
700

$$$$
>  <MOLECULE>
Cc1cc2c(cc1Oc1ncc(C(=O)NCCO)s1)CCC(c1ccccc1C)O2 (centres unmarked) [compound 357]

>  <UNITS>
nM

>  <IC50>
600

$$$$
>  <MOLECULE>
O=C(NC1(C(=O)O)CCCC1)c1cnc(Oc2ccc3c(c2)CC[C@@H](c2ccccc2)O3)s1 [compound 195]

>  <UNITS>
nM

>  <IC50>
700

$$$$
>  <MOLECULE>
CC(Cc1ccccc1)(NC(=O)c1cnc(Oc2ccc3c(c2)CC[C@@H](c2ccccc2)O3)s1)C(=O)O (some centres unmarked) [compound 233]

>  <UNITS>
nM

>  <IC50>
800

$$$$
>  <MOLECULE>
Cc1ccccc1[C@@H]1CCc2cc(Oc3ncc(C(=O)NCCOP(=O)(O)O)s3)ccc2O1 [Example 345, disodium salt]

>  <UNITS>
nM

>  <IC50>
70

$$$$
